# Test system: MS2 coat protein
# EXPERIMENT: apparent KD of MS2 coat protein; designed switch direction (-1 OFF switch, 1 ON switch): -1; higher = weaker reporter binding
# COND: input ligand: none
Please provide measured apparent KD of MS2 coat protein for the entries that follow.
Numbers only, in nM.

Known results for sequences:
{"columns": ["POLYMER SEQUENCE", "UNIT OF MEASUREMENT", "apparent KD of MS2 coat protein"],
 "data": [
  ["UAAAUGUCAGGAUAUUGUUAAUUUAGUUGUUUGUAUUAGUUCGAGAAGGGACAUGAGGAUCACCCAUGUUAAAU [Ex4 #53] (Eterna round: R97, puzzle: Exclusion 4)", "nM", 30.4],
  ["CGUAUGUGAGGAUAUGGUCUCGAUGACAUGAGGAUCACCCAUGUAACAUGGGACUUGUGACUAGAAGGCACUAACG [JR_Ex5_Sub023] (Eterna round: R97, puzzle: Exclusion 5)", "nM", 17.4],
  ["UUCUGCACGCUGCGGUCCUACAUGAGGAUCACCCAUGUGGUCUGGUGGCGUGGGUCGCCGGACUUGGCUCGUCUUGA [salish99_S_TOV1_R5_044] (Eterna round: R97, puzzle: Sensor, turn-off variant 1)", "nM", 19.1],
  ["GCUAGUCAUGUCAGGAUAUGCAGAUCCUUGGAUCUGCAGAAGGGACAUGAGGAUCACCCAUGUGCCUAACUAGC [Mat - Exclusion 4 - JL Mod - D14] (Eterna round: R97, puzzle: Brourd's mod of Exclusion 4)", "nM", 41.6]
]}

// below: apparent KD of MS2 coat protein requested for another sequence
Request: State the recorded apparent KD of MS2 coat protein for this entry: CCCGAGGAAGGAUAUACAUGAGGAUCACCCAUGUGCGUUGGGACUGGCGUGGUCUUCAGUAGAAGGUCCGCGCC [Esdiza] (Eterna round: R97, puzzle: Exclusion 3)
Result: 33.8
